Measured EC50 by item
# target-or-system: T1, human HVEM extracellular domain fused with an Fc fragment at the C-terminus (human, UniProt Q92956 39-202)
# T1 construct: extracellular domain; Bought; also called hHVEM; not shown: Fc fragment at the C-terminus
# T1 sequence (looked up): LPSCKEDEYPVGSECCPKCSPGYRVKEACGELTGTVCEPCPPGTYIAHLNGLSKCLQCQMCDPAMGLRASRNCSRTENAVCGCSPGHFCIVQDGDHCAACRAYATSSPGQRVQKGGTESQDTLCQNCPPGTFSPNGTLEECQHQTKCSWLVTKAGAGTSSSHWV
# assay-explanation: ELISA on coated target-Fc

binder	EC50 (nM)
LIGHT-52 (ligand, Printed mutations: L220S; Soluble protein carries an N-terminal His tag) DGPAGSWEQLIQERRSHEVNPAAHLTGANSSLTGSGGPLLWETQLGLAFLRGLSYHDGALVVTKAGYYYIYSKVQLGGVGCPLGLASTITHGLYKRTPRYPEELELLVSQQSPCGRATSSSRVWWDSSFLGGVVHLEAGEKVVVRVSDERLVRLRDGTRSYFGAFMV	0.599
LIGHT (74-240) (ligand, Soluble protein carries an N-terminal His tag; also called wild-type human LIGHT; LIGHT (74-240) (wt)) DGPAGSWEQLIQERRSHEVNPAAHLTGANSSLTGSGGPLLWETQLGLAFLRGLSYHDGALVVTKAGYYYIYSKVQLGGVGCPLGLASTITHGLYKRTPRYPEELELLVSQQSPCGRATSSSRVWWDSSFLGGVVHLEAGEKVVVRVLDERLVRLRDGTRSYFGAFMV	0.992

All values here come from patent US20250361288A1.
